Just for reference, the supplement of paper PMC6555819 is where these values come from.

Consider the following sequences; for each one, report its PBM binding z-score.
# Tested on: RXRa homodimer (NR concentration 180 nM)
# Assay: PBM binding z-score (relative to random genomic background probes); higher = stronger binding; sequences stand for … in GC…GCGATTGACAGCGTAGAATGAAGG
Give the figure only, with no unit attached.

# input Reported PBM binding z-score, sequence TCTCGGAGGACACGAAGGTCAGAGCGTTCCAGAG : ____
# output 1.94

# input Reported PBM binding z-score, sequence CCTGCTGGGTCATGGTCAGCTAATCTACAGTATG : ____
# output 2.88

# input Endpoint output: PBM binding z-score of ATCGAAAGGTCGAGGTAAGTATAGAGAAAGGGAA . Value?
# output 4.6

# input Endpoint output: PBM binding z-score of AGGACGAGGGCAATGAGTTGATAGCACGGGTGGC . Value?
# output 0.924

# input For the sequence shown here, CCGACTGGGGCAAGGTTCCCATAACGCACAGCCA , give the reported PBM binding z-score.
# output 0.314

# input Suppose we examine the sequence CAAACTAGGTCAAAGGTTAAAGTCGAGCCAACCA ; what PBM binding z-score value has been reported?
# output 8.93

# input # lookup: PBM binding z-score of CGAACTAGGTCAGAAAAGGACAGTGAAGGATGAT
# output 0.978

# input Quick one: PBM binding z-score for TCTTGTAGATCAAGCAGGGTAAGAAAGCCTGAGT ?
# output -0.147

# input What value of PBM binding z-score has been reported for the following sequence? AGAATGAGGTTATTAAGATTAGGGAATTGCGGTC
# output 1.72

# input Item under review: TCGAGTAGGGTAGGGGCATTCAGAATGGCGTCGA . Reported PBM binding z-score?
# output 0.411

# input Name the recorded PBM binding z-score for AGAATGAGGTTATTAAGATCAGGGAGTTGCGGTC .
# output 1.78

# input sequence: ATATGTAGGTTATCAGGTCATTCAGTTTGCGCAT ; wanted: its PBM binding z-score
# output 3.12

# input Quick check: PBM binding z-score of CTACCAAGGTGAACAAGGTCGGTGATTACTATTC ?
# output 1.23

# input Entry under review: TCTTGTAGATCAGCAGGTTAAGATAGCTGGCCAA . Reported PBM binding z-score?
# output 0.48

# input Name the reported PBM binding z-score value associated with the sequence ATCTCTAGGTAAGACTCAGTTCAATGAAGAACGC
# output 0.539

# input Given the entry CCTACTGGGCCAAAAAGGTCCTTGATGCCGATAA , report its measured PBM binding z-score.
# output -0.259

# input State the recorded PBM binding z-score for this entry: ATCTCTAGGTAAGACTCAGTTCAGTGCAGAACGC
# output 0.206

# input Fill in the blank: the reported PBM binding z-score of CCTAGTTTGTCAGGAGGTCACACACCGGATATGA is ____.
# output 4.52

# input Dear colleague, I am looking for the recorded PBM binding z-score of the following sequence: GGAACGAGGGCATTCGAGTCGATAGCATGGCGAT
# output 0.622

# input Quick check: PBM binding z-score of CGTGAAAGTTCAACTAAGGTAACGTAAAGCACGC ?
# output 4.3

# input I'd like to know its PBM binding z-score. The sequence in question is TCGAGTAGGTTACCAATGGGGCTTTCAGCTTTCT
# output 0.16

# input Request the reported PBM binding z-score associated with GCTAGTTGGTCAATAAAAGGTCACACACCGGTCG
# output 5.51

# input Reported PBM binding z-score, sequence CGTCCAAGGTCAGCAGGTCAGTGAGAGCGACGTG : ____
# output 5.29

# input Need PBM binding z-score of CAGCCTAGGTTAGGGCCAGTATAGGAGGAACGTT , thanks.
# output 0.0782

# input Look at this sequence and give its reported PBM binding z-score. CGTGCAAGGTCAAGGTCAGTGAAAGAGACTCGAA
# output 6.7

# input Requested read-out: PBM binding z-score. Entry: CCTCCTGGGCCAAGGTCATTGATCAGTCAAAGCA
# output 3.1

* * *

# Test system: PPARa:RXRa (NR concentration 270 nM, RXRa partner concentration 90 nM)
# Assay: PBM binding z-score (relative to random genomic background probes); higher = stronger binding; sequences stand for … in GC…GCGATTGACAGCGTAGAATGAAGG
Recorded Endpoint: PBM binding z-score
No unit in the answer, please; the number alone is enough.

# input Could you share which PBM binding z-score value was measured for CCTAGCAGGCCAGGGTCATTCAAGCATTTCGCTT ?
# output 3.66

# input Sample ATATGTACGTTATCGGGTCATTCAGTTTGCGCAT — what was its PBM binding z-score?
# output 2.67

# input Using the record for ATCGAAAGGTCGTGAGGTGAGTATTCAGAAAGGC , report its PBM binding z-score.
# output 5.12

# input For the sequence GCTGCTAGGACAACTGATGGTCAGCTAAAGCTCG , what PBM binding z-score is on record?
# output -1.94

# input Entry under review: CGTTACGGGTCACTCCAGGTTATAGCATCGGAGT . Reported PBM binding z-score?
# output 4.67

# input Param item = AATAGCAGGCCAAGGGTCACTCAAGATTAGTCCG ; retrieve measured PBM binding z-score.
# output 4.75

# input Fill in: PBM binding z-score of GCGACTGGGGCATCAGCAGCTTACCATAACTTAA is ___
# output 0.137

# input May I ask what PBM binding z-score has been recorded for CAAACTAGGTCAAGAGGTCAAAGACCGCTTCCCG ?
# output 6.65

# input Given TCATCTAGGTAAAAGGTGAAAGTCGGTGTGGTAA , state its recorded PBM binding z-score.
# output 5.64

# input // PBM binding z-score lookup, key: TAGAGTAGGTTACCAATGGGGCATTCAGCTTTCT
# output 1.68

# input GET /values?readout=PBM binding z-score&item= ATCTCTATGTAAAAGTTCAGTGAATCCCGAGGAT
# output 2.49

# input So what does the record say about PBM binding z-score for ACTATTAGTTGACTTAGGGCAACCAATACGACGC ?
# output 0.111

* * *

# System: LXRb:RXRa (NR concentration 270 nM, RXRa partner concentration 90 nM)
# Assay: PBM binding z-score (relative to random genomic background probes); higher = stronger binding; sequences stand for … in GC…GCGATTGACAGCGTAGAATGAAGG
Binary call on PBM binding z-score: label 1 from 1 upward, label 0 beneath that.

# input Answer whether PBM binding z-score of GGAACGAGGGTATTCGAGTTGATAGCATGGCGAT is greater than or equal to 1.
# output label 0

# input Decide: is the reported value of PBM binding z-score for TGAATGAGGTTATAAGATCCGGGAACGTTGCAAA equal to or greater than 1?
# output label 0

# input Is reported PBM binding z-score greater than or equal to 1 here: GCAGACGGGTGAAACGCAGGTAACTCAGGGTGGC
# output label 0

# input API: above_or_equal(metric=PBM binding z-score, cutoff=1) for item TCAGCCAGGTGAAGGTAACTCAGGTACGCAGTCG
# output label 0

# input Textbook exercise: given the entry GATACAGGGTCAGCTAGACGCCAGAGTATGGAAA , state whether its PBM binding z-score is greater than or equal to 1.
# output label 1

# input Please indicate if the recorded PBM binding z-score for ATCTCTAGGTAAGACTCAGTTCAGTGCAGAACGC meets or exceeds 1.
# output label 0

# input Exam item: decide whether the reported PBM binding z-score for CCTTGGAGGACAGAAGGTCAGAGCTGTCCGCTTT is at least 1.
# output label 1

# input Does the sequence GCTTACTGGTCAAAGGTTATAGCATGAATAGAAT have recorded PBM binding z-score that is 1 or more?
# output label 1

# input Could you tell me if the measured PBM binding z-score of CCTACAGGGCCAAAAAGGTCATTGATGCCGATAA reaches 1 or more?
# output label 1

# input # check: PBM binding z-score of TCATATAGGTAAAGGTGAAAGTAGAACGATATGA is greater than or equal to 1
# output label 1

# input PBM binding z-score >= 1 for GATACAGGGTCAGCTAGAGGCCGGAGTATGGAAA ?
# output label 1

# input Test whether the sequence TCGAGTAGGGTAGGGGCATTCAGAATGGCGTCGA records PBM binding z-score of 1 or higher.
# output label 1

# input Given the entry CCGGACAGGTGAGAAGGTAACTCAGCCTCGATTA , answer whether its PBM binding z-score meets or surpasses 1.
# output label 0

# input Say whether GATACAGGGTCAGCTATAGGCCAGAGTATGGAAA shows PBM binding z-score of 1 or more.
# output label 1

# input Can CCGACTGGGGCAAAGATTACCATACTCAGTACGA be said to have PBM binding z-score at or above 1?
# output label 0

# input Quick check, PBM binding z-score >= 1? ATCTCTGGGTAAAGTTCAGTGAAAGATCGATAGA
# output label 1

# input Reported PBM binding z-score at or above 1? GGAACGAGCGCATTCGAGTTGATAGCATGGCGAT
# output label 0

# input Quick check, PBM binding z-score >= 1? ACTCGGAGGAAAAAGGTCAGAGCTACGCCAGTGA
# output label 1

# input Does CGTCCAAGGTAAAGGTCAGTGAAAGAGACTCGAA have a reported PBM binding z-score of at least 1?
# output label 1

# input Quick check, PBM binding z-score >= 1? CCTTCTGGGCCAAAGGTCATTGATTCCAATGCTC
# output label 1

# input Record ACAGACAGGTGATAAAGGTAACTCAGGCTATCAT ; criterion: PBM binding z-score no lower than 1. Met?
# output label 0

# input Record ATCTCTAGGTAACCAAGTTCAGTGATTGCCGAAC ; criterion: PBM binding z-score no lower than 1. Met?
# output label 0

# input Quick check, PBM binding z-score >= 1? CAGCCTAGGTCAGGGCCAGTAGAGGAGGAACGTT
# output label 0

# input PBM binding z-score >= 1 for TAGCCTAGGTCCTTGGGCCAGTATAGTACGCATC ?
# output label 0

# input Record AGAATGAGGTTATTAAGATAAGGGAATTGCGGTC ; criterion: PBM binding z-score no lower than 1. Met?
# output label 1

# input Is the recorded value of PBM binding z-score equal to or greater than 1 for this sequence? ATATGTGGGTTAGCTGGGGTCATTCAGACTAGGC
# output label 1
